The measured values listed here are drawn from patent US20260250381A1.

Target: T1, human TREM2 (human) (UniProt Q9NZC2)
T1 sequence (looked up): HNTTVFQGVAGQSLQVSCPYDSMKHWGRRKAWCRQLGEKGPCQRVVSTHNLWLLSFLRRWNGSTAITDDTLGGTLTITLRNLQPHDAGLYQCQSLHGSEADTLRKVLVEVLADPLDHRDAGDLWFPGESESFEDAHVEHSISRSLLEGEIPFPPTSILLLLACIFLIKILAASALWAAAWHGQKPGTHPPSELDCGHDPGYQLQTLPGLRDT
Test: 2nd screen, 100 nM Ab
quantityKind: Binding Signal (fold over 6E7 parental antibody) (fold)
Answer with a number only, understood to be in fold.

Past entries and their recorded results:
>  <binder>
6E7 variant V21 (antibody, V domains shown) VH: EVQLVQSGAEVKKPGESLKISCKGSGYSFTSYWIAWVRQMPGKGLEWMGIIYPGDSDTRYSPSFQGQVTISADKSISTAYLQWSSLKASDTAMYFCARQRTFYYDSSDFFDYWGQGTLVTVSS VL: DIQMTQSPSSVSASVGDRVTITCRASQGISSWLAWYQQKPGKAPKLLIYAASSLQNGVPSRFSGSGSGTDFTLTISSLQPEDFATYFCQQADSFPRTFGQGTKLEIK

>  <measurementUnit>
fold

>  <measValue>
0.68

$$$$
>  <binder>
6E7 variant V7 (antibody, V domains shown) VH: EVQLVQSGAEVKKPGESLKISCKGSGYSFTSEWIAWVRQMPGKGLEWMGIIYPGDSDTRYSPSFQGQVTISADKSISTAYLQWSSLKASDTAMYFCARQRTFYYDSSDYFDYWGQGTLVTVSS VL: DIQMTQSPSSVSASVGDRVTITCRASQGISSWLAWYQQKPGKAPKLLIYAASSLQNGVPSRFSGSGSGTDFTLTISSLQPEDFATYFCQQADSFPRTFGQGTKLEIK

>  <measurementUnit>
fold

>  <measValue>
0.32

$$$$
>  <binder>
6E7 variant V32 (antibody, V domains shown) VH: EVQLVQSGAEVKKPGESLKISCKGSGYSFTSYWIAWVRQMPGKGLEWMGIIYPGDSDTRYSNSFQGQVTISADKSISTAYLQWSSLKASDTAMYFCARQRTFYYDSSDYFDYWGQGTLVTVSS VL: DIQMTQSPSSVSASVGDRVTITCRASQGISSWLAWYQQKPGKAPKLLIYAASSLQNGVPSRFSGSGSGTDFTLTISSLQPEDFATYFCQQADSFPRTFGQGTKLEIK

>  <measurementUnit>
fold

>  <measValue>
0.89

$$$$

QUERY: Given the binder 6E7 variant V33 (antibody, V domains shown) VH: EVQLVQSGAEVKKPGESLKISCKGSGYSFTSYWIAWVRQMPGKGLEWMGIIYPGDSDTRYSPSFQGQVTISADKSISTAYLQWSSLKASDTAMYFCARQRTFYGDSSDYFDYWGQGTLVTVSS VL: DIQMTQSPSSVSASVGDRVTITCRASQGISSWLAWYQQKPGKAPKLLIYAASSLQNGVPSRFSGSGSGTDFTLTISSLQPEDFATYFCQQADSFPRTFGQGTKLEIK , what is its reported Binding Signal (fold over 6E7 parental antibody)?
RESULT: 0.34
